Recorded MCHC values for a group of compounds are listed next.
# Species: Rattus norvegicus
# EXPERIMENT_SUMMARY: Open TG-GATES - Regimen: Single
# Format: toxicity, organism-based, Sprague-Dawley
# Set-up: regimen Single, gender Male, age 6 weeks
# DETAILS: in vivo, po, 0 mg/kg, 9 h, tissue Blood, route gavage, dose level Control
Numbers only; they are read as %.

Recorded MCHC, per entry:
Clc1ccccc1CN1CCc2sccc2C1 [TICLOPIDINE]; 35.6
Cn1c(=O)c2[nH]cnc2n(C)c1=O.O [THEOPHYLLINE]; 33.3

*Q* Return MCHC (reported value) for this compound: CC(=O)Oc1ccccc1C(=O)O [ASPIRIN]
*A* 36.3

*Q* Return MCHC (reported value) for this compound: COc1ccc(Cc2nccc3cc(OC)c(OC)cc23)cc1OC [PAPAVERINE]
*A* 33

*Q* Return MCHC (reported value) for this compound: CCc1cc(C(N)=S)ccn1 [ETHIONAMIDE]
*A* 33.9

*Q* Return MCHC (reported value) for this compound: C[C@H](CS)C(=O)N1CCC[C@H]1C(=O)O [CAPTOPRIL]
*A* 33

*Q* Return MCHC (reported value) for this compound: NC(=O)N/N=C/c1ccc([N+](=O)[O-])o1 [NITROFURAZONE]
*A* 32

*Q* Return MCHC (reported value) for this compound: O=C(O)c1cn(C2CC2)c2cc(N3CCNCC3)c(F)cc2c1=O [CIPROFLOXACIN]
*A* 33.1

*Q* Return MCHC (reported value) for this compound: CN(C)CCC=C1c2ccccc2CCc2ccccc21 [AMITRIPTYLINE]
*A* 32.8

*Q* Return MCHC (reported value) for this compound: CSc1ccc2c(c1)N(CCC1CCCCN1C)c1ccccc1S2 (stereo unspecified) [THIORIDAZINE]
*A* 33.1

*Q* Return MCHC (reported value) for this compound: O=C(O)c1cc(/N=N/c2ccc(S(=O)(=O)Nc3ccccn3)cc2)ccc1O [SULFASALAZINE]
*A* 34.1
